B1: Chromodomain-helicase-DNA-binding protein 3, residues 374 to 426; numbered along this chain, Q12873 (parent)
chain: YETDHQDYCEVCQQGGEIILCDTCPRAYHLVCLDPELDRAPEGKWSCPHCEKE

Variants of: B1
Test: abundance fitness (aPCA) (normalised: wild type 0, dead -1); higher = more abundant; growth selection in yeast, the domain comes from the species named
Conditions: Homo sapiens
Hi there, I'd appreciate the recorded abundance fitness for every entry that follows.
Give bare numbers.

P35M ... -0.095

Would you mind listing abundance fitness for each of the following variants?
1. E36S
2. E17T
3. T3Q
4. H5V

Key:
1: -0.335; 2: 0.053; 3: -0.069; 4: 0.142

These entries and their values trace back to the Human Domainome abundance scans (Beltran et al. 2025).
